Molecular target: Exodeoxyribonuclease V (Escherichia coli (strain K12), UniProt P04993+P07648+P08394)
Sequence (P04993 whole entry): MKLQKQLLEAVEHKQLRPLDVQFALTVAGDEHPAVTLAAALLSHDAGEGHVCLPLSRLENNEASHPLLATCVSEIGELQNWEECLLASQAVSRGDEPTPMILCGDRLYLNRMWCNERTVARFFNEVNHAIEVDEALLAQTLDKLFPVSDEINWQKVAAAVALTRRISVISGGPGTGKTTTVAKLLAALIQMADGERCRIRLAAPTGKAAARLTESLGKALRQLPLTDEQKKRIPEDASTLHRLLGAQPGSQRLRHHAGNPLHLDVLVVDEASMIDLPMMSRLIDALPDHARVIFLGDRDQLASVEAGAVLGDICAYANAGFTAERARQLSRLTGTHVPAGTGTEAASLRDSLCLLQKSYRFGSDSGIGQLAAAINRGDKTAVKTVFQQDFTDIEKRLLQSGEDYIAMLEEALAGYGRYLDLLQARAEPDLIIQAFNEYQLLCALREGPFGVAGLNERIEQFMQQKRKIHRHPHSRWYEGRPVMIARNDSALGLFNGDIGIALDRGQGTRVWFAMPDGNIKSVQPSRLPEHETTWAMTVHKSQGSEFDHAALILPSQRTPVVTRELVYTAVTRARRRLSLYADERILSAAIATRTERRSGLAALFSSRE
Sequence (P07648 whole entry): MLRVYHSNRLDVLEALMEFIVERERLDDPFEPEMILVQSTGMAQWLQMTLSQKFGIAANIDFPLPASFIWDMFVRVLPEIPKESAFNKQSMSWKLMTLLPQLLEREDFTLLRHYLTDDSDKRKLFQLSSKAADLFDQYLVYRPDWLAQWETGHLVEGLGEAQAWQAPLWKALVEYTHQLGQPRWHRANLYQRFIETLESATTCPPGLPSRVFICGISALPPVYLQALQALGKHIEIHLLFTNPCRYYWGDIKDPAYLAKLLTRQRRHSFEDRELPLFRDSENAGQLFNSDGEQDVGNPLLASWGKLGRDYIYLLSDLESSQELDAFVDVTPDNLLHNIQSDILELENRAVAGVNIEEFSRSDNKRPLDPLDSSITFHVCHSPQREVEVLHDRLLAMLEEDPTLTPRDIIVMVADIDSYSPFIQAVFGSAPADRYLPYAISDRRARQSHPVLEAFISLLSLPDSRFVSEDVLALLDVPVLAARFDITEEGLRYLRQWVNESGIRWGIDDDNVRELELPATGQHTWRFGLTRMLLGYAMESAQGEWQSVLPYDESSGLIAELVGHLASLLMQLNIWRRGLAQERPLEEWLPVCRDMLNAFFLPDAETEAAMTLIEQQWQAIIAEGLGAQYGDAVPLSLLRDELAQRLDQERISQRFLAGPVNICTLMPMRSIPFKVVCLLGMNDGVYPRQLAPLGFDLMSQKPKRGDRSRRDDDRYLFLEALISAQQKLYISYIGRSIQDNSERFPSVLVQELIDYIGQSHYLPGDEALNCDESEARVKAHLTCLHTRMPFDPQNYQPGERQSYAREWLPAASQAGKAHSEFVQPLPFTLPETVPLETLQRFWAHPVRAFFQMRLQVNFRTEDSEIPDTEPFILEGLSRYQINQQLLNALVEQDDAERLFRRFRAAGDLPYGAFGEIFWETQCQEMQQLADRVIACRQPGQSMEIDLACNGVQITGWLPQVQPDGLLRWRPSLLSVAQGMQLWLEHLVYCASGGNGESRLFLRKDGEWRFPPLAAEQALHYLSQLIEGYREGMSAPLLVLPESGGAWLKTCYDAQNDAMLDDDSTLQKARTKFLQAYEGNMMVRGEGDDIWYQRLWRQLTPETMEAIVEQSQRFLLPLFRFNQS
Sequence (P08394 whole entry): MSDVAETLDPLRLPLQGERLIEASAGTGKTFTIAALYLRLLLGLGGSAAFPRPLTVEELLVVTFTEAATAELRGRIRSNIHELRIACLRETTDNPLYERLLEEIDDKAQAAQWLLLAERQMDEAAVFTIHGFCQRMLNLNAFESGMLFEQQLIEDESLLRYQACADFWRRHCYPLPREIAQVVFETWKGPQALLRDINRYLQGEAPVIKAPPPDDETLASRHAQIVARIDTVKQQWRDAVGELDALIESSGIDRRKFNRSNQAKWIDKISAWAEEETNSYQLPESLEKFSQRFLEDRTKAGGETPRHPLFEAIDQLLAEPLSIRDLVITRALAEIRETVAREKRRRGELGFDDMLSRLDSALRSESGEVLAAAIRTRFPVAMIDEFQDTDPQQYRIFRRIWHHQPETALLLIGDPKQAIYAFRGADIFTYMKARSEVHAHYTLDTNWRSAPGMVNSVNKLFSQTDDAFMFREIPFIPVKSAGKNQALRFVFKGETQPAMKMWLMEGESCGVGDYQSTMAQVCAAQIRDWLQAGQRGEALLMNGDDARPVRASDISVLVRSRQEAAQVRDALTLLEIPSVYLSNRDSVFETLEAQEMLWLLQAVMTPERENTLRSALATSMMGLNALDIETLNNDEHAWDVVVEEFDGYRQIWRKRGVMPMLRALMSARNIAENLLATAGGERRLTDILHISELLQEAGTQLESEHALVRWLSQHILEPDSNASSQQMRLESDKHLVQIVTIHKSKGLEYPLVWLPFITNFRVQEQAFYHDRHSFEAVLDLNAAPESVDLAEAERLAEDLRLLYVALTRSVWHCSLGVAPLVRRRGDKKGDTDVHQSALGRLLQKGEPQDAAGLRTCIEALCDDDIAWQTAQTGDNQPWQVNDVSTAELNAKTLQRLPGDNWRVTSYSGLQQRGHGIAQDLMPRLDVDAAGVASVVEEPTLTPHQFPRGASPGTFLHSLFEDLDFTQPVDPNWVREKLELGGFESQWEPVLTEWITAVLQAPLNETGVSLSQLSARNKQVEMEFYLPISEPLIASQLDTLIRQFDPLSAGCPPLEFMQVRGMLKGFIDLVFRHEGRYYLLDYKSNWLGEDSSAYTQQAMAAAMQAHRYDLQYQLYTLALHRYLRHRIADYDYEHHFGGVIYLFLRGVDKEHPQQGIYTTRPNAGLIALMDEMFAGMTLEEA
Experiment: RecBCD inhibition via phage-restricted bacterial growth – absorbance, V66 E. coli, mutant T4 phage, counter-screen for AddAB inhibitor project, dose response (AID 492957)
Format: functional, cell-based, Escherichia coli str. K-12 substr. MG1655
Activity calls are given as the source filed them.
propertyName: IC50

Q: Please look up its IC50: `O=C(O)c1ccc(N/N=C/C=C/c2ccc([N+](=O)[O-])o2)cc1`
Result: > 119 µM (inactive)

Q: Also check `CCCn1c(NC(=O)c2ccc([N+](=O)[O-])o2)nc2ccccc21`
Result: > 118 µM (inactive)

Q: Also check `Cc1c(C(=O)NNC(=O)c2ccccc2O)oc2ccc(Br)cc12`
Result: > 119 µM (inactive)

Q: Also check `O=C(NNC(=O)C1CCN(S(=O)(=O)c2ccccc2C(F)(F)F)CC1)c1ccccc1O`
Result: > 119 µM (inactive)

====

Recorded below: AC50, system Cytochrome P450 2D6 (Homo sapiens, UniProt P10635).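 Further: CYP2D6 member of a cytochrome P450 panel assay.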

Q: Please look up its AC50: `Cc1ccc(-c2nn3c(C)nnc3c3ccccc23)cc1S(=O)(=O)NCc1ccccc1`
Result: 15.8 µM (inconclusive)

Q: Also check Cc1ccccc1NC(=O)C(C)c1cccc(C(=O)c2ccccc2)c1 (stereo unspecified)
Result: 25.1 µM (inconclusive)

Q: Also check `COc1cccc(-c2nc(NCc3ccccc3)c3ccccc3n2)c1`
Result: 20 µM (inconclusive)

Q: Also check `COc1ccccc1-c1nc(Nc2ccncc2)c2ccccc2n1`
Result: 25.1 µM (inconclusive)

Q: Also check `CN(CC[C@@H](Oc1ccc(-c2ccccc2)cc1)c1ccc(F)cc1)CC(=O)O`
Result: 31.6 µM (inconclusive)

Q: Also check `CCOC(=O)Cn1c(CN(Cc2ccccc2)Cc2ccccc2)nc2c1c(=O)[nH]c(=O)n2C`
Result: 31.6 µM (inconclusive)

Q: Also check `CCCCc1nc(O)c(C#N)c2c1CCCC2`
Result: 35.5 µM (inconclusive)

Q: Also check `COc1ccccc1N1CCN(C[C@@H](C(=O)NC(C)(C)C)c2ccccc2)CC1`
Result: 20 µM (inconclusive)

Q: Also check `O=C(CN1CCN(S(=O)(=O)c2ccc(F)cc2)CC1)Nc1ccc2c(c1)OCO2`
Result: 5.01 µM (inconclusive)

Q: Also check `C[C@H](C(=O)O)c1cccc(Oc2ccccc2)c1`
Result: 12.6 µM (inconclusive)

Q: Also check `COc1cc(C)cc2c(-c3c(O)cc(O)c4c3C[C@H](C)N[C@@H]4C)cc(-c3cc(-c4c(O)cc(O)c5c4C[C@H](C)N[C@@H]5C)c4cc(C)cc(OC)c4c3O)c(O)c12`
Result: 5.01 µM (inconclusive)

Q: Also check `CC1CCN(CCCn2c(=S)[nH]c3ccc(N4CCOCC4)cc3c2=O)CC1`
Result: 22.4 µM (inconclusive)

Q: Also check `COc1ccc(NC(=O)N2CCCC3(CCN(S(=O)(=O)c4ccccc4)CC3)C2)cc1`
Result: 15.8 µM (inconclusive)

Q: Also check `CS(=O)(=O)N1CCC2(CC1)CN(Cc1ccccc1)C2`
Result: 15.8 µM (inconclusive)

Q: Also check `CN1CCc2cc3c(cc2[C@@H]1[C@@H]1C(=O)Oc2c1ccc1c2OCO1)OCO3`
Result: 39.8 µM (inconclusive)

Q: Also check `N#Cc1cccc(-c2cncnc2NCc2cccs2)c1`
Result: 31.6 µM (inconclusive)

Q: Also check `O=[N+]([O-])c1ccc(Cl)c(/C=N/N2CCN(Cc3ccccc3Cl)CC2)c1`
Result: 7.94 µM (inconclusive)

Q: Also check `O=C(c1cnccn1)N1CCC2(CCCN(c3ncccn3)C2)CC1`
Result: 15.8 µM (inconclusive)

Q: Also check CCCC[C@@H]1C[C@H]1C(NC(=O)c1ccco1)c1ccc(Cl)cc1 (stereo partly specified)
Result: 39.8 µM (inconclusive)

Q: Also check `Cc1noc(C)c1-c1ccc2ncnc(NCc3cccnc3)c2c1`
Result: 12.6 µM (inconclusive)

Q: Also check `Cc1ccc(S(=O)(=O)N(Cc2ccccc2)c2ccccc2C(=O)NCc2ccco2)cc1`
Result: 15.8 µM (inconclusive)
